assay: Cmax in Sprague-Dawley rat at 3 mg/kg, iv measured up to 1280 mins by HPLC-MS/MS analysis; format: ADME, organism-based; set-up: route intravenous, dose 3 mg/kg, time <=1280; conditions: in vivo
readout: Cmax
Put down the number, then write its unit next to it.

Prompt line: Read the entry "Cc1cc(C)n(Cc2ccc(C(=O)Nc3ccc(Cl)c(Cl)c3)s2)n1" and write its reported Cmax.
Response line: 2350 ng/mL

---

assay: Cytotoxicity against mouse L929 cells assessed as cell growth inhibition at 60 uM measured after 48 hrs by CCK8 assay relative to control; type: cell-based
readout: inhibition at 48 h, 60 µM (%)
Respond numerically; units are % and should not be typed.

- structure: "Cc1cc(C)n(Cc2ccc(C(=O)Nc3ccc4cc[nH]c4c3)s2)n1"
  unitAbbreviation: "%"
  inhibition at 48 h, 60 µM: 2.8
- structure: "Cc1cc(C)n(Cc2ccc(C(=O)Nc3ccc(-c4cccnc4)cc3)s2)n1"
  unitAbbreviation: "%"
  inhibition at 48 h, 60 µM: 27.5
- structure: "O=C(Nc1cc(Cl)cc(Cl)c1)c1ccc(Cn2nc(C(F)(F)F)cc2C(F)(F)F)o1"
  unitAbbreviation: "%"
  inhibition at 48 h, 60 µM: 84.3

Prompt line: Read the entry "Cc1cc(C)n(Cc2ccc(C(=O)Nc3ccc(F)cc3C)s2)n1" and write its reported inhibition at 48 h, 60 µM.
Response line: 11.5

Prompt line: Read the entry "Cc1cc(C)n(Cc2ccc(C(=O)Nc3ccc(Cl)c(Cl)c3)s2)n1" and write its reported inhibition at 48 h, 60 µM.
Response line: 0.5
